Biological target: T1, human Flag-tagged soluble TWEAK (amino acids 106-249) (human, UniProt O43508 106-249)
T1 construct: N-terminal placement here is only an order of listing; not shown: Flag tag
T1 sequence: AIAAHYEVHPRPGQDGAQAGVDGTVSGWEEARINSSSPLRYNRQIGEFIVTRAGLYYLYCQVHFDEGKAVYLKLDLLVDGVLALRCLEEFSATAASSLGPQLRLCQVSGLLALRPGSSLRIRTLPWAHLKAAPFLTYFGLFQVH
Assay: competition ELISA: antibody pre-incubated with human Flag-TWEAK, binding to coated human Fn14:Fc
EXPERIMENTAL ENDPOINT: IC50

Q: What does the data say about its IC50? Entry: Antibody 33 (antibody, V domains shown, Humanized variant of antibody 305; also called humanized 305 variant 305-LC4 / 305-HC4) VH: QVQLVQSGAEVKKPGSSVKVSCKASGFDFSTYYMSWVRQAPGQGLEWMGTVYVRQGTTYYASWLNGRVTITADESTSTAYMELSSLRSEDTAVYYCARGGYNYDDAFVIWGQGTLVTVSS VL: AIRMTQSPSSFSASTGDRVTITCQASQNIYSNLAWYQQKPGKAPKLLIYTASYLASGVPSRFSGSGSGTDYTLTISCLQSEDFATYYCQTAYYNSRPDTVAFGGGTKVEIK
Ans: 1.7 ng/mL

Now take the following binder into account.
Q: What does the data say about its IC50? Entry: Antibody 34 (antibody, V domains shown, Humanized variant of antibody 305; also called humanized 305 variant 305-LC4 / 305-HC2) VH: EVQLLESGGGLVQPGGSLRLSCAASGFDFSTYYMSWVRQAPGKGLEWVSTVYVRQGTTYYASWLNGRFTISRDNSKNTLYLQMNSLRAEDTAVYYCAKGGYNYDDAFVIWGQGTLVTVSS VL: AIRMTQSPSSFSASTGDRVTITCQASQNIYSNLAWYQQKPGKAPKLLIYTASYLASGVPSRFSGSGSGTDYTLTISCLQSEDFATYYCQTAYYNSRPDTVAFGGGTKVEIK
Ans: 1.9 ng/mL
